system: Tov-21-G; assay: Primary qHTS to identify gynecologic anti-cancer compounds using libraries of approved drugs and bioactive compounds (AID 1345084); conditions: Gynecologic cancer cell panel viability, ATPlite luminescence, 48 h; series mostly up to 57.5 µM; note: % is set by controls: 0 for no effect and ±100 for the full control effect; nearly all actives have a fitted effect of over 55% in size
Records with an inconclusive call do not appear. Active and inactive are the calls of the source. Calls come from the whole dose curve; as a rule, active = well fitted cell-killing curve with a large enough effect; inconclusive = small, poorly fitted or top-dose-only effect, or effect the other way; inactive = flat fitted curve, though single readings scatter.

compound: CC(=O)OCC1OC(O[C@H]2CC[C@@]3(C)C(CC[C@]4(C)C3CC=C3[C@@H]5CC(C)(C)CC[C@]5(C(=O)O)CC[C@]34C)[C@]2(C)CO)C(O)C(O)C1OC1OC(C)C(O)C(OC2OCC(O)C(O)C2O)C1O (stereo not given in full)
target or system: Tov-21-G
activity change, negative = cytotoxicity: 6.07% [at 11.6 µM] (inactive)
//
compound: OC[C@@]1(O)CO[C@H](OC[C@H]2O[C@@H](OCCc3ccccc3)[C@H](O)[C@@H](O)[C@@H]2O)[C@@H]1O
target or system: Tov-21-G
activity change, negative = cytotoxicity: inactive
//
compound: C=C[C@H]1[C@H](O[C@@H]2O[C@H](CO)[C@@H](O)[C@H](O)[C@H]2O)OC=C2C(=O)N3Cc4c([nH]c5ccccc5c4=O)[C@@H]3C[C@H]21
target or system: Tov-21-G
activity change, negative = cytotoxicity: inactive
//
compound: C=C1C(O)CC2C(C(=O)O)=COC(OC3OC(CO)C(O)C(O)C3OC(=O)/C=C\c3ccc(O)cc3)C12 (stereo not given)
target or system: Tov-21-G
activity change, negative = cytotoxicity: inactive
//
compound: CC1(C)CC[C@]2(C(=O)O[C@@H]3O[C@H](CO)[C@@H](O)[C@H](O)[C@H]3O)CC[C@]3(C)C(=CCC4[C@@]5(C)C[C@H](O)[C@H](O[C@@H]6O[C@H](C(=O)O)[C@@H](O)[C@H](O)[C@H]6O)[C@@](C)(CO)C5CC[C@]43C)C2C1 (stereo not given in full)
target or system: Tov-21-G
activity change, negative = cytotoxicity: -2.15% [at 6.55 µM] (inactive)

----------
test system: JEG-3; assay: Primary qHTS to identify gynecologic anti-cancer compounds using libraries of approved drugs and bioactive compounds (AID 1345084); conditions: Gynecologic cancer cell panel viability, ATPlite luminescence, 48 h; series mostly up to 57.5 µM; note: % is set by controls: 0 for no effect and ±100 for the full control effect; nearly all actives have a fitted effect of over 55% in size
Records with an inconclusive call do not appear. Activity calls are given as the source filed them. Calls follow the shape of the dose curve; as a rule, active = well fitted cell-killing curve with a large enough effect; inconclusive = small, poorly fitted or top-dose-only effect, or effect the other way; inactive = flat fitted curve, though single readings scatter.
assay metric: activity change, negative = cytotoxicity

compound: OCC1OC(Oc2cc(O)cc(/C=C/c3ccc(OC4OC(CO)C(O)C(O)C4O)cc3O)c2)C(O)C(O)C1O (stereo unspecified)
measured value: inactive
//
compound: CCCNCCOc1ccc(NC(=O)c2c[nH]c3c2C(=O)CCC3)cc1F
measured value: inactive
//
compound: COc1cc(Nc2nc3c(s2)CCCC3c2ccccc2)ccc1-n1cnc(C)c1 (stereo unspecified)
measured value: 2.94% [at 11.6 µM] (inactive)
//
compound: CC1OC(O[C@@H]2[C@H](O)[C@@H](OC3OC(CO)C(O)C(O)C3O)[C@H](OC(=O)[C@]34CCC(C)(C)C[C@H]3C3=CCC5[C@@]6(C)CC[C@H](O[C@@H]7O[C@H](C(=O)O)[C@@H](O)[C@H](O[C@@H]8OC[C@@H](O)[C@H](O)[C@H]8O)[C@H]7O[C@@H]7O[C@H](CO)[C@H](O)[C@H](O)[C@H]7O)[C@@](C)(C=O)C6CC[C@@]5(C)[C@]3(C)C[C@H]4O)O[C@@H]2C)C(O)C(O)C1OC1OCC(O)C(O)C1O (stereo partly specified)
measured value: 2.9% [at 6.55 µM] (inactive)
//
compound: C[C@H]1CC[C@@]2(OC1)O[C@H]1CC3C4CC[C@H]5C[C@@H](O)CC[C@]5(C)C4CC(=O)[C@]3(C)[C@H]1[C@@H]2C (stereo partly specified)
measured value: inactive
//
compound: O=C(Nc1cc(-c2ccccc2)nn1-c1ccccc1F)c1ccc([N+](=O)[O-])cc1
measured value: inactive

----------
biological target: Phenylethanolamine N-methyltransferase (Homo sapiens) (UniProt P11086); assay: Confirmatory Screen for Target Class Profiling of Small Molecule Inhibitors of Methyltransferases (AID 1745852); conditions: MTase-Glo luminescence, SAH detection, recombinant enzyme; measured here: PNMT max response; stronger effect = lower value
Sequence (P11086 whole entry, looked up): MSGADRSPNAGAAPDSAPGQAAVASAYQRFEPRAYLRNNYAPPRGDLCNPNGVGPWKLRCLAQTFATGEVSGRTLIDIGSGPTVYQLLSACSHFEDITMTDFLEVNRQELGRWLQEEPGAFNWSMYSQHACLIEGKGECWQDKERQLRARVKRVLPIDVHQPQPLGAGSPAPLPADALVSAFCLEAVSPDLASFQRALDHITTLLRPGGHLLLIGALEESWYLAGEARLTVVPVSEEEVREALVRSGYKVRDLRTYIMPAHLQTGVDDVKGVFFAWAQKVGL
Measured activity values are reported for all entries that follow.

molecule: CCOc1ccc(-c2cc(NC(=O)c3c(F)cccc3F)c(C(=O)O)s2)cc1
target or system: Phenylethanolamine N-methyltransferase (Homo sapiens) (UniProt P11086)
activity (%): -2.03

molecule: O=C(O)Cn1nnc(-c2ccc(CN(CCCCOc3ccc(CN4CCCC4)cc3)CCc3ccccc3)cc2)n1
target or system: Phenylethanolamine N-methyltransferase (Homo sapiens) (UniProt P11086)
activity (%): 0.559

molecule: CC1CC(=O)C2=C(O1)OC1(C)CCC3C(C)(C)C4OC4C(=O)C3(C)C1C2 (stereo not given)
target or system: Phenylethanolamine N-methyltransferase (Homo sapiens) (UniProt P11086)
activity (%): -2.49

molecule: C=C[C@H]1[C@H](O[C@@H]2O[C@H](CO)[C@@H](O)[C@H](O)[C@H]2O)OC=C(C(=O)OC)[C@H]1CCO
target or system: Phenylethanolamine N-methyltransferase (Homo sapiens) (UniProt P11086)
activity (%): -3.1

molecule: CC1=CCC(O)C2(C)CCC3C(C)C(=O)OC3C12 (stereo not given)
target or system: Phenylethanolamine N-methyltransferase (Homo sapiens) (UniProt P11086)
activity (%): -2.6

----------
molecular target: N-terminal Xaa-Pro-Lys N-methyltransferase 1 (Homo sapiens); test: Confirmatory qHTS for Inhibitors of N-terminal methyltransferase 1 (NTMT1): MTaseGlo Assay (AID 1645874); settings: NTMT1 enzyme, MTase-Glo SAH luminescence; series mostly up to 51.5 µM; note: nearly all actives have a fitted effect of over 65% in size
Inconclusive results are not listed. Active and inactive are the calls of the source. The call rests on the fitted dose curve; in most records, active means well fitted inhibition curve with a large enough effect; inconclusive means small, poorly fitted or top-dose-only effect; inactive means no such curve, though single readings can be large or run the other way.
Possible outcomes: 1 for active, 0 for inactive

molecule: O=C(O)c1ccnc2cc(-c3nc4ccccc4n3CCN3CCCCC3)sc12
target or system: N-terminal Xaa-Pro-Lys N-methyltransferase 1 (Homo sapiens)
class assignment: 0
//
molecule: CC(C)c1cc2c(c(O)c1O)[C@@]13CCCC(C)(C)C1[C@@H](O)[C@@H]2OC3=O (stereo not given in full)
target or system: N-terminal Xaa-Pro-Lys N-methyltransferase 1 (Homo sapiens)
class assignment: 0
//
molecule: O=C(NCCN1CCCC1)c1cc(-c2ccc(CN3CCOCC3)cc2)nc2ccc(F)cc12
target or system: N-terminal Xaa-Pro-Lys N-methyltransferase 1 (Homo sapiens)
class assignment: 0
//
molecule: N#Cc1cccc(-c2c[nH]c3ncnc(N4CCOCC4)c23)c1
target or system: N-terminal Xaa-Pro-Lys N-methyltransferase 1 (Homo sapiens)
class assignment: 1
//
molecule: C=Cc1cc2oc(-c3ccc(O)c(F)c3)nc2cc1O
target or system: N-terminal Xaa-Pro-Lys N-methyltransferase 1 (Homo sapiens)
class assignment: 1

----------
biological target: Phospholipid hydroperoxide glutathione peroxidase GPX4 (Homo sapiens); assay: Primary qHTS Assay for Inhibitors of Recombinant Selenoprotein Glutathione Peroxidase 4 (GPX4) (AID 1845192); conditions: recombinant GPX4, GR-coupled NADPH fluorescence, 15 min; series mostly up to 27.8 µM; note: nearly all actives have a fitted effect of over 65% in size; for activity change, negative = inhibition: % is set by controls: 0 for no effect and ±100 for the full control effect
Records with an inconclusive call do not appear. Activity calls are given as the source filed them. Calls come from the whole dose curve; as a rule, active = well fitted inhibition curve with a large enough effect; inconclusive = small, poorly fitted or top-dose-only effect; inactive = flat fitted curve, though single readings scatter.
assay metric: activity change, negative = inhibition

compound: CC1CCC2(C)CCC3(C)C(=CCC4C5(C)CCC(O)C(C)(C(=O)O)C5CCC43C)C2C1C (centres undefined)
measured value: inactive
//
compound: CCc1cc(CC[C@]2(C3CCCC3)CC(O)=C(Cc3nc4nc(C)cc(C)n4n3)C(=O)O2)cc(CC)n1
measured value: inactive
//
compound: C/C=C(/C)C(=O)OC1CC(C)(C)CC2C3=CCC4C5(C)CCC(OC6OC(C)C(OC7OC(C(=O)O)C(O)C(OC8OC(CO)C(O)C(O)C8OC8OC(CO)C(O)C(O)C8O)C7O)C(O)C6O)C(C)(C)C5CCC4(C)C3(C)C(OC(=O)/C=C/C=C/C=C/CCC)C(OC(C)=O)C12CO (centres undefined)
measured value: inactive
//
compound: Nc1c(-c2ccccc2)nc(Cl)c2c(O)n[nH]c(=O)c12
measured value: inactive
//
compound: C=C1CC[C@@H]2[C@](C)(CO)[C@H](O[C@@H]3O[C@H](CO)[C@@H](O)[C@H](O)[C@H]3O)CC[C@@]2(C)[C@@H]1C/C=C1/C(=O)OC[C@H]1O
measured value: inactive
//
compound: C=C1CC[C@H]2[C@@](C)(CCC(OC3OC(CO)C(O)C(O)C3O)[C@@]2(C)CO)C1C(=O)CC1=CCOC1=O (some centres undefined)
measured value: inactive
//
compound: CC(C)[C@@](O)(c1ccc2cc(OC(F)F)c(OC(F)F)cc2c1)c1cn[nH]n1
measured value: inactive
//
compound: CC(C)(O)C1CC=C(C(=O)OC[C@H]2O[C@@H](Oc3cc(C(=O)O)cc(O)c3O)[C@H](O)[C@@H](O)[C@@H]2O)CC1 (some centres undefined)
measured value: inactive
//
compound: C[C@@H]1O[C@@H](O[C@H]2[C@H](O[C@H]3[C@H](O[C@H]4CC[C@@]5(C)C(CC[C@]6(C)C5CC=C5[C@@H]7CC(C)(C)C[C@@H](O)[C@]7(C)CC[C@]56C)[C@@]4(C)CO)O[C@H](C(=O)O)[C@@H](O)[C@@H]3O)O[C@H](C(=O)O)[C@H](O)[C@@H]2O)[C@H](O)[C@H](O)[C@H]1O (some centres undefined)
measured value: inactive
//
compound: O=C(O)Cn1nnc(-c2ccc(CN(CCCCOc3ccc(CN4CCCC4)cc3)CCc3ccccc3)cc2)n1
measured value: inactive
//
compound: CC1=C(C)C(=O)OC(C(C)C2C(O)CC3C4C5OC5C5(O)CC(OC6OC(CO)C(OC7OC(C)C(O)C(O)C7O)C(O)C6O)CC(O)C5(C)C4CCC32C)C1 (centres undefined)
measured value: inactive
//
compound: Cn1cc(CCn2cnc(-c3cnn(C)c3)c2-c2ccc(C#N)cc2)cn1
measured value: inactive
//
compound: C[C@]1(C2CCCC2)Cc2cc(OCC(=O)O)c(Cl)c(Cl)c2C1=O
measured value: inactive
//
compound: C/C=C/C=C/C(=O)OC1CC/C=C/C(O)C(O)C(CCC)OC1=O (centres undefined)
measured value: inactive
